molecular target: GPR6 receptor expressed in CHO-K1 cells (Homo sapiens); construct: expressed in transfected cells; experiment: In vitro inhibition of cAMP (EC50), cell-based HTRF cAMP assay; settings: inhibition of constitutive cAMP activity of GPR6 in CHO-K1 cells
# maps each entry to its pEC50, in vitro inhibition of cAMP
Answer with a number only.

Use the examples below as a reference point.
• COc1nn(C)cc1C(=O)Nc1cc(C#N)cnc1N1CCN(Cc2ccc(Cl)cc2F)CC1 = 7.1
• COc1ncccc1C(=O)Nc1cc(C#N)ccc1N1CCN(Cc2ncc(F)cc2F)CC1 = 6.5
• Cc1nccnc1C(=O)Nc1cc(C#N)ccc1N1CCC(Oc2ccc(F)cc2F)CC1 = 6.6
• COc1c(C(=O)Nc2ccc(C)nc2N2CCN(Cc3ccc(F)cc3)CC2)cnn1C = 6.5
• COc1ncccc1C(=O)Nc1cc(C#N)ccc1N1CCN(Cc2cccc(C#N)c2)CC1 = 6.9

Using the record for Cc1ccc(C(=O)Nc2cc(C#N)ccc2N2CCC(Oc3ccc(F)cc3F)CC2)nn1 , report its pEC50, in vitro inhibition of cAMP.
6.6

Now try N#Cc1ccc(N2CCC(Oc3ccc(F)cc3F)CC2)c(NC(=O)c2cc3n(n2)CCC3)c1 .
6.6

Can you check CN(C)C(=O)Cn1cccc(C(=O)Nc2cc(C#N)ccc2N2CCC(Oc3ccc(F)cc3F)CC2)c1=O next?
4.9

---

Below, each entry is listed alongside its reported pEC50, in vitro inhibition of cAMP.
biological target: GPR6 receptor expressed in CHO-K1 cells (Homo sapiens, UniProt P46095); construct: expressed in transfected cells; assay: In vitro inhibition of cAMP (EC50), cell-based HTRF cAMP assay; conditions: inhibition of constitutive cAMP activity of GPR6 in CHO-K1 cells
Sequence (P46095 whole entry): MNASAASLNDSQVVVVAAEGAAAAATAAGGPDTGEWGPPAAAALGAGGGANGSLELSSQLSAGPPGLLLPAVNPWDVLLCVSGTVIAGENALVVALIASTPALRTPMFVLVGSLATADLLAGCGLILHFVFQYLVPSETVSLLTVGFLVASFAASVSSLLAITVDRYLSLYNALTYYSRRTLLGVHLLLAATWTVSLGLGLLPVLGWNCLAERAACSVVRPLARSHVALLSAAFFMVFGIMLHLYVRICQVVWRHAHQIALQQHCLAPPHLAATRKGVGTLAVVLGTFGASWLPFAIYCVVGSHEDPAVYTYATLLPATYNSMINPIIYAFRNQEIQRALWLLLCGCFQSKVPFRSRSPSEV
Lab note: record just the number, no unit beside it.

Below are worked cases with known answers.
* COc1ncccc1C(=O)Nc1cc(C#N)cnc1N1CCC(Oc2ccc(F)cc2F)CC1 [Example 63] | 7.1
* Cn1cccc(C(=O)Nc2cc(C#N)ccc2N2CCC(C(F)(F)c3cc(F)ccc3F)CC2)c1=O [Example 88] | 6.4
* N#Cc1ccc(N2CCC(Oc3ccc(F)cc3F)CC2)c(NC(=O)c2cccnc2OC(F)F)c1 [Example 276] | 7.3
* COc1cc(F)c(F)cc1C(=O)Nc1cc(C#N)ccc1N1CCC(Oc2ccc(F)cc2F)CC1 [Example 229] | 7.3
* COc1ncccc1C(=O)Nc1cc(C(=O)N(C)C)ccc1N1CCC(Oc2ccc(F)cc2F)CC1 [Example 265] | 6.7

Report pEC50, in vitro inhibition of cAMP for COc1nn(C)cc1C(=O)Nc1cc(C#N)cnc1N1CCN(Cc2ccc(OC(F)F)cc2)CC1 [Example 162] please.
6.6

Another compound: N#Cc1ccc(N2CCC(Oc3ccc(F)cc3F)CC2)c(NC(=O)c2ncoc2C2CC2)c1 [Example 111]
5.5

// repeat for Cc1nc(C(=O)Nc2cc(C#N)ccc2N2CCC(Oc3ccc(F)cc3F)CC2)ccc1F [Example 137] and report
7.1

---

Below, each entry is listed with its recorded pEC50, in vitro inhibition of cAMP.
target: GPR6 receptor expressed in CHO-K1 cells (Homo sapiens); construct: expressed in transfected cells; experiment: In vitro inhibition of cAMP (EC50), cell-based HTRF cAMP assay; conditions: inhibition of constitutive cAMP activity of GPR6 in CHO-K1 cells
The answer should be a number; do not append a unit.

Worked cases, answers included:
* CS(=O)(=O)c1ccc(N2CCC(Oc3ccc(F)cc3F)CC2)c(NC(=O)c2cnn3c2OCCCC3)c1 | 6.8
* Cc1nc(C(=O)Nc2cc(C#N)ccc2N2CCC(Oc3ccc(F)cc3F)CC2)cs1 | 7.0

Fill in: pEC50, in vitro inhibition of cAMP of COc1ccncc1C(=O)Nc1ccc(C#N)cc1N1CCC(Oc2ccc(F)cc2F)CC1 is ___
7.3

Check COc1ncc(F)cc1C(=O)Nc1ccc(C#N)nc1N1CCC(Oc2ccc(F)cc2F)CC1 too.
7.3

Try Cn1cccc(C(=O)Nc2cc(S(=O)(=O)N3CCOCC3)cnc2N2CCC(Oc3ccc(F)cc3F)CC2)c1=O next.
7.0

Here is the next compound: Cc1nc(C(=O)Nc2cc(C#N)ccc2N2CCC(Oc3ccc(F)cc3F)CC2)co1
6.1

Moving on to the next compound: Cc1cnc(C(=O)Nc2cc(C#N)ccc2N2CCC(Oc3ccc(F)cc3F)CC2)c(C)n1
6.1

---

biological target: GPR6 receptor expressed in CHO-K1 cells (Homo sapiens); construct: expressed in transfected cells; assay: In vitro inhibition of cAMP (EC50), cell-based HTRF cAMP assay; conditions: inhibition of constitutive cAMP activity of GPR6 in CHO-K1 cells
readout name: pEC50, in vitro inhibition of cAMP

• N#Cc1ccc(N2CCC(Oc3ccc(F)cc3F)CC2)c(NC(=O)c2cocn2)c1 [Example 122] = 6.1
• Cc1cc(C)n(C)c(=O)c1C(=O)Nc1cc(C#N)ccc1N1CCC(Oc2ccc(F)cc2F)CC1 [Example 176] = 6.5
• N#Cc1cnc(N2CCC(Oc3ccc(F)cc3F)CC2)c(NC(=O)c2cc(Cl)ccn2)c1 [Example 55] = 7.3
• CNC(=O)c1cc(N2CCC(Oc3ccc(F)cc3F)CC2)c(NC(=O)c2cccnc2OC)cn1 [Example 19] = 6.7
• COc1nn(C)cc1C(=O)Nc1cc(C#N)cnc1N1CCN(Cc2cccc(F)c2OC)CC1 [Example 160] = 6.5
• Cn1c(-c2ccccc2)ncc(C(=O)Nc2cc(C#N)ccc2N2CCC(Oc3ccc(F)cc3F)CC2)c1=O [Example 183] = 5.9
• COc1cc(N2CCC(Oc3ccc(F)cc3F)CC2)c(NC(=O)c2cccnc2OC)cn1 [Example 20] = 6.9
• COc1cc(Br)ccc1C(=O)Nc1cc(C#N)ccc1N1CCC(Oc2ccc(F)cc2F)CC1 [Example 226] = 7.0
• N#Cc1ccc(N2CCC(Oc3ccc(F)cc3F)CC2)c(NC(=O)c2cnc3sccn3c2=O)c1 [Example 200] = 6.9
• Cn1cccc(C(=O)Nc2cc(C#N)ccc2N2CCC(Oc3cc(F)ccc3F)CC2)c1=O [Example 15] = 7.1

GET /values?readout=pEC50, in vitro inhibition of cAMP&item= COc1ncc(F)cc1C(=O)Nc1cc(C#N)ccc1N1CCC(Oc2ccc(F)cc2F)CC1 [Example 224]
7.3

Cc1csc(C(=O)Nc2cc(C#N)ccc2N2CCC(Oc3ccc(F)cc3F)CC2)n1 [Example 51] ?
6.8

Try this molecule too: Cc1cc(C(=O)Nc2cc(C#N)ccc2N2CCC(Oc3ccc(F)cc3F)CC2)c(=O)n(C)c1C [Example 184]
6.8

What do we get for COc1nc(C)ccc1C(=O)Nc1cnc(C(=O)N(C)C)cc1N1CCC(Oc2ccc(F)cc2F)CC1 [Example 283] ?
6.8

Also Cn1cccc(C(=O)Nc2cc(C#N)ccc2N2CCC(Oc3ccc(F)c(F)c3)CC2)c1=O [Example 16] , if possible.
6.6

And then O=C(Nc1ccccc1N1CCN(C(=O)c2ccc(Cl)cc2)CC1)c1ccncn1 [Example 259] , what is it?
5.3

---

Here, each record is paired with measured pEC50, in vitro inhibition of cAMP data.
target: GPR6 receptor expressed in CHO-K1 cells (Homo sapiens, UniProt P46095); construct: expressed in transfected cells; assay: In vitro inhibition of cAMP (EC50), cell-based HTRF cAMP assay; conditions: inhibition of constitutive cAMP activity of GPR6 in CHO-K1 cells
# respond with the number and nothing more

Guide cases for pEC50, in vitro inhibition of cAMP, answers given:
- COc1ncccc1C(=O)Nc1cc(C#N)nnc1N1CCC(Oc2ccc(F)cc2F)CC1: 7.2
- COc1nc(C)ccc1C(=O)Nc1cnc(C)nc1N1CCC(Oc2ccc(F)cc2F)CC1: 7.1

Which value of pEC50, in vitro inhibition of cAMP has been reported for Cn1cccc(C(=O)Nc2cnc(Cl)cc2N2CCC(Oc3ccc(F)cc3F)CC2)c1=O in the records?
7.2

Would you kindly repeat that for Cn1cccc(C(=O)Nc2cc(C#N)ccc2N2CCC(Oc3cccc(F)c3F)CC2)c1=O ?
6.1

Please do the same for COc1ncccc1C(=O)Nc1cc(C#N)ccc1N1CCN(Cc2c(F)cccc2Cl)CC1 as well.
6.5

Okay, and COc1nc(C(F)(F)F)ccc1C(=O)Nc1cc(C#N)ccc1N1CCC(Oc2ccc(F)cc2F)CC1 ?
6.8

Okay, and COc1ncccc1C(=O)Nc1cnc(C(=O)N[C@@H]2CCOC2)cc1N1CCC(Oc2ccc(F)cc2F)CC1 ?
6.8

Would you mind doing COc1ccncc1C(=O)Nc1cc(C(=O)N(C)C)ncc1N1CCC(Oc2ccc(F)cc2F)CC1 as well?
7.3

---

target: GPR6 receptor expressed in CHO-K1 cells (Homo sapiens); construct: expressed in transfected cells; experiment: In vitro inhibition of cAMP (EC50), cell-based HTRF cAMP assay; conditions: inhibition of constitutive cAMP activity of GPR6 in CHO-K1 cells
readout name: pEC50, in vitro inhibition of cAMP

Guide cases for pEC50, in vitro inhibition of cAMP, answers given:
• Cc1ccc(C(=O)Nc2cc(C#N)ccc2N2CCC(Oc3ccc(F)cc3F)CC2)nc1 [Example 124] = 6.9
• COc1ccc(F)c(CN2CCN(c3ccc(C#N)cc3NC(=O)c3cccnc3OC)CC2)c1 [Example 242] = 6.8
• COc1cccc(C)c1C(=O)Nc1cc(C#N)ccc1N1CCC(Oc2ccc(F)cc2F)CC1 [Example 227] = 5.8

Consider the compound CCc1cc(C(=O)Nc2cc(C#N)ccc2N2CCC(Oc3ccc(F)cc3F)CC2)no1 [Example 118] and give its measured pEC50, in vitro inhibition of cAMP.
6.4
